Value source: ChEMBL document CHEMBL5543162

assay: Stability in rat liver microsomes assessed as intrinsic clearance; assay type: ADME, Microsome; settings: read-out: CLH
value-kind: CLint scaled (mL/min/kg)
Write it as a number; the unit mL/min/kg goes unstated.

[[record]]
compound = "Cc1c(NC(=O)CN2CCN(CC3CCN(c4ccc5c(c4)C(=O)N(C4CCC(=O)NC4=O)C5=O)CC3)CC2)c[nH]c1/C=C1\\C(=O)Nc2ccc(F)cc21 (configuration not stated)"
units_text = "mL/min/kg"
observed_result = 27


Next compound, please.
GET /value?item= Cc1c(NC(=O)CCN2CCCC2)c[nH]c1/C=C1\C(=O)Nc2ccc(F)cc21 &field=CLint scaled returns 41

----------
assay: Stability in mouse liver microsomes assessed as hepatic clearance; type: ADME, Microsome
value-kind: CLhep predicted (mL/min/kg)
All answers are understood in mL/min/kg, so give the number only.

[[record]]
compound = "Cc1c(NC(=O)CCN2CCCC2)c[nH]c1/C=C1\\C(=O)Nc2ccc(F)cc21"
value_kind = "CLhep predicted"
observed_result = 51.4


Would you kindly look at the next entry?
# CLhep predicted of Cc1c(NC(=O)CN2CCN(CC3CCN(c4ccc5c(c4)C(=O)N(C4CCC(=O)NC4=O)C5=O)CC3)CC2)c[nH]c1/C=C1\C(=O)Nc2ccc(F)cc21 (configuration not stated) = 45.7

----------
test: Antiproliferative activity against mouse Ba/F3 FLT3-ITD cells incubated for 48 hrs by CCK8 assay; type: functional, cell-based
value-kind: IC50 (nM)
Give the number; nM is assumed, so skip it.

// sample Cc1c(NC(=O)CN2CCN(CC3CCN(c4ccc5c(c4)C(=O)N(C4CCC(=O)NC4=O)C5=O)CC3)CC2)c[nH]c1/C=C1\C(=O)Nc2ccc(F)cc21 (stereo unspecified) , its IC50 was 17

----------
half-life reference
experiment: Stability in monkey liver microsomes assessed as half life; format: ADME, Microsome; conditions: chlorocebus aethiops
Please state the figure in min; there is no need to write the unit.

[[record]]
compound = "Cc1c(NC(=O)CN2CCN(CC3CCN(c4ccc5c(c4)C(=O)N(C4CCC(=O)NC4=O)C5=O)CC3)CC2)c[nH]c1/C=C1\\C(=O)Nc2ccc(F)cc21 (configuration not stated)"
observed_result = 36.9


Note: attention shifts to another entry.
The compound identified as Cc1c(NC(=O)CCN2CCCC2)c[nH]c1/C=C1\C(=O)Nc2ccc(F)cc21 registered its half-life at 59

----------
target: UniProtKB P20813; experiment: Inhibition of CYP2B6 (unknown origin); format: ADME
Sequence (P20813 whole entry): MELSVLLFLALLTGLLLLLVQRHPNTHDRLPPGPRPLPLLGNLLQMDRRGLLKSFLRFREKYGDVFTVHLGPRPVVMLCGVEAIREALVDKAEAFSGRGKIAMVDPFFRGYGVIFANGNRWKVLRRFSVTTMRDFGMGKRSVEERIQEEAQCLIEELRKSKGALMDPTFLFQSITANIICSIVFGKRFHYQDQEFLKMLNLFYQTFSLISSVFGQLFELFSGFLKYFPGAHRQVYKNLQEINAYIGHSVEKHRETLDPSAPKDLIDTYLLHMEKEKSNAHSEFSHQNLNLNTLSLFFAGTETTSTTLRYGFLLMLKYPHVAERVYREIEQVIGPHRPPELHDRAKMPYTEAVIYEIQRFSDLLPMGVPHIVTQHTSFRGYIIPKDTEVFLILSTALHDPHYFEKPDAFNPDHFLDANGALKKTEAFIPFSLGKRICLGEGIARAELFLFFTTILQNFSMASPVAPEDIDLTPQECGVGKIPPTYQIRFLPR
value-kind: IC50

// Cc1c(NC(=O)CN2CCN(CC3CCN(c4ccc5c(c4)C(=O)N(C4CCC(=O)NC4=O)C5=O)CC3)CC2)c[nH]c1/C=C1\C(=O)Nc2ccc(F)cc21 (stereo unspecified) : IC50 value = > 50 µM

----------
assay: Antiproliferative activity against human THP-1 cells expressing wild-type FLT3 incubated for 48 hrs by CCK8 assay; assay type: toxicity, cell-based
value-kind: IC50 at 48 h (µM)
Give just the numeric value; µM need not be written.

[[record]]
molecule = "Cc1c(NC(=O)CCN2CCCC2)c[nH]c1/C=C1\\C(=O)Nc2ccc(F)cc21"
observed_result = 1.5


Please find the next molecule below.
What the record says about Cc1c(NC(=O)CN2CCN(CC3CCN(c4ccc5c(c4)C(=O)N(C4CCC(=O)NC4=O)C5=O)CC3)CC2)c[nH]c1/C=C1\C(=O)Nc2ccc(F)cc21 (configuration not stated) : IC50 at 48 h is 15.1

----------
biological target: Voltage-gated inwardly rectifying potassium channel KCNH2 (Homo sapiens, UniProt Q12809)
Sequence (Q12809 whole entry): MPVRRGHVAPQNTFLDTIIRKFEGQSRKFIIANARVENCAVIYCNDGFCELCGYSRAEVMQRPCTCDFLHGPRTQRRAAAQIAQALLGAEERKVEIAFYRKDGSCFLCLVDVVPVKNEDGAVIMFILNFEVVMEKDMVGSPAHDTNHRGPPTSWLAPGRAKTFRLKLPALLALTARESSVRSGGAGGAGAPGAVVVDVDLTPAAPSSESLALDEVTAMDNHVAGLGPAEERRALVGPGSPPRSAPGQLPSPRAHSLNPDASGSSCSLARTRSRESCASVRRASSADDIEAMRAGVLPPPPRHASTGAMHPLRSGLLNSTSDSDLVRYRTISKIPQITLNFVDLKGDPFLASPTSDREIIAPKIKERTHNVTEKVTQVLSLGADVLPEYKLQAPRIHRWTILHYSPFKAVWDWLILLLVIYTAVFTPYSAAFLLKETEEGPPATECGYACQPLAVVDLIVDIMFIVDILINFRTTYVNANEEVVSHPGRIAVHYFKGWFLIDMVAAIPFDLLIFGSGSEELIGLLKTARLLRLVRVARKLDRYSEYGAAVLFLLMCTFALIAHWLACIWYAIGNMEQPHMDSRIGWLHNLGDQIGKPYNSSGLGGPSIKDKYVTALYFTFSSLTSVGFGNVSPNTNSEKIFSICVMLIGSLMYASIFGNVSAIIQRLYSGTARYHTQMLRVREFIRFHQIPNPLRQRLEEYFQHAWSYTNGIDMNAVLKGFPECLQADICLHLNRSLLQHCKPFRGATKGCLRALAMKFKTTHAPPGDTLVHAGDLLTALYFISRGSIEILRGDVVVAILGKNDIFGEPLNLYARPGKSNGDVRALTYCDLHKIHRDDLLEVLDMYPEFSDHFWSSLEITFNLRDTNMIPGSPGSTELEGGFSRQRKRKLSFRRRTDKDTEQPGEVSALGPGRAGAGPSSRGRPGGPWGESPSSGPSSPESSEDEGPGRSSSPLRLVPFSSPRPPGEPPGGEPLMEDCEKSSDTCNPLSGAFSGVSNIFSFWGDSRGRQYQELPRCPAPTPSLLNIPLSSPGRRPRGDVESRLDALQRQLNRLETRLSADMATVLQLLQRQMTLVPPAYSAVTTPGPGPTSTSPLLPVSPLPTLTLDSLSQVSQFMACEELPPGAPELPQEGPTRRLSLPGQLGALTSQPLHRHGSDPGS
pIC50: −log10 of the molar value.
value-kind: pIC50

# Cc1c(NC(=O)CN2CCN(CC3CCN(c4ccc5c(c4)C(=O)N(C4CCC(=O)NC4=O)C5=O)CC3)CC2)c[nH]c1/C=C1\C(=O)Nc2ccc(F)cc21 (stereo unspecified) with Voltage-gated inwardly rectifying potassium channel KCNH2 (Homo sapiens, UniProt Q12809): pIC50 is < 4.40

----------
experiment: Stability in human liver microsomes assessed as half life; format: ADME, Microsome
Recorded half-life by entry
A number alone suffices; assume h.

[[record]]
compound = "Cc1c(NC(=O)CN2CCN(CC3CCN(c4ccc5c(c4)C(=O)N(C4CCC(=O)NC4=O)C5=O)CC3)CC2)c[nH]c1/C=C1\\C(=O)Nc2ccc(F)cc21 (configuration not stated)"
value_kind = "half-life"
observed_result = 1.16


Continue with the next compound.
Item: Cc1c(NC(=O)CCN2CCCC2)c[nH]c1/C=C1\C(=O)Nc2ccc(F)cc21 | half-life: 3.21

----------
Recorded CLint scaled, one value per entry.
test: Stability in mouse liver microsomes assessed as intrinsic clearance; type: ADME, Microsome; settings: read-out: CLH
Could you give me the number in mL/min/kg? Just the number is fine.

[[record]]
compound = "Cc1c(NC(=O)CCN2CCCC2)c[nH]c1/C=C1\\C(=O)Nc2ccc(F)cc21"
observed_result = 120


Just so you know, measured CLint scaled for Cc1c(NC(=O)CN2CCN(CC3CCN(c4ccc5c(c4)C(=O)N(C4CCC(=O)NC4=O)C5=O)CC3)CC2)c[nH]c1/C=C1\C(=O)Nc2ccc(F)cc21 (configuration not stated) came out at 92.7

----------
assay: Half life in Sprague-Dawley rat at 10 mg/kg, po measured for 24 hrs by LC-MS/MS analysis; assay type: ADME, organism-based; conditions: in vivo
value-kind: half-life
Put your answer as a value accompanied by its unit after it.

// half-life lookup, molecule = Cc1c(NC(=O)CN2CCN(CC3CCN(c4ccc5c(c4)C(=O)N(C4CCC(=O)NC4=O)C5=O)CC3)CC2)c[nH]c1/C=C1\C(=O)Nc2ccc(F)cc21 (stereo unspecified) , result: 3.8 h

----------
tested on: MOLM-13; test: Antiproliferative activity against Sunitinib-resistant human MOLM-13 cells incubated for 48 hrs by CCK8 assay; type: functional, cell-based; settings: MOLM-13, 48 h
Field: label. Allowed values: 1 (IC50 < 800 nM) or 0 (IC50 >= 800 nM).

[[record]]
compound = "CCc1nc(C(N)=O)c(Nc2ccc(N3CCC(N4CCN(C)CC4)CC3)c(OC)c2)nc1NC1CCOCC1 [GILTERITINIB]"
classification = 0

[[record]]
compound = "CC(C)(C)c1cc(NC(=O)Nc2ccc(-c3cn4c(n3)sc3cc(OCCN5CCOCC5)ccc34)cc2)no1 [QUIZARTINIB]"
classification = 0

[[record]]
compound = "CCN(CC)CCNC(=O)c1c(C)[nH]c(/C=C2\\C(=O)Nc3ccc(F)cc32)c1C [SUNITINIB]"
classification = 0


Could you now consider this next compound?
Query block: # strict comparison: is reported IC50 < 800 nM? input = Cc1c(NC(=O)CN2CCN(CC3CCN(c4ccc5c(c4)C(=O)N(C4CCC(=O)NC4=O)C5=O)CC3)CC2)c[nH]c1/C=C1\C(=O)Nc2ccc(F)cc21 (stereo not given)
Result block: 1

----------
assay: AUC (0 to t) in Sprague-Dawley rat at 1 mg/kg, iv measured for 24 hrs by LC-MS/MS analysis; type: ADME, organism-based; settings: in vivo
value-kind: AUC(0-t) at 24 h (ng·h/mL)
Field format: number, assumed ng·h/mL, no unit text.

Summary for this compound, Cc1c(NC(=O)CN2CCN(CC3CCN(c4ccc5c(c4)C(=O)N(C4CCC(=O)NC4=O)C5=O)CC3)CC2)c[nH]c1/C=C1\C(=O)Nc2ccc(F)cc21 (stereo unspecified) : AUC(0-t) at 24 h is 2770
